Tested on: HEK-293T
Assay: Multiplex assay against HEK293T
Assay type: toxicity, cell-based
Details: human, 12 h, 1 µM, compound concentration 1 uM, replicate 1
observable: Population Mitochondria Different-Phenotype (%)
Reply with just the number (in %).

molecule: CN1CCN(c2nc3cc(C(F)(F)F)ccc3n3cccc23)CC1.O=C(O)/C=C\C(=O)O.O=C(O)/C=C\C(=O)O
system tested: HEK-293T
result number: 48
//
molecule: CCCn1c(=O)c2[nH]c(C3CCCC3)nc2n(CCC)c1=O
system tested: HEK-293T
result number: 44
//
molecule: O=C(O)c1cc2ccccc2c(Cc2c(O)c(C(=O)O)cc3ccccc23)c1O
system tested: HEK-293T
result number: 38
//
molecule: Cc1ccc(F)cc1C(=O)Nc1ccc(C(=O)N2Cc3cccn3Cc3ccccc32)c(Cl)c1
system tested: HEK-293T
result number: 45
//
molecule: O=C(NCC(=O)N1CC[C@H](N[C@H]2CC[C@@](O)(c3ccc(-c4ncccn4)cn3)CC2)C1)c1cccc(C(F)(F)F)c1
system tested: HEK-293T
result number: 41
//
molecule: Cc1ccc(C(C)(O)c2nc3ccccc3s2)c(C)c1 (stereo not drawn)
system tested: HEK-293T
result number: 36
//
molecule: O=C(NCCO)c1cccc(-c2cc(Nc3ccc(OC(F)(F)F)cc3)ncn2)c1
system tested: HEK-293T
result number: 47

The record that follows has no Population Mitochondria Different-Phenotype (%) shown yet.
CCOc1c2c(c(OCC)c3ncccc13)CN(c1ccc(CS(=O)(=O)NC(=O)Cc3ccccc3OC)cc1C)C2=O yielded Population Mitochondria Different-Phenotype (%) of 43

Cited source for all entries: ChEMBL document CHEMBL5058577
